# experimental target: T1, human MSLN-FL-his protein (human, UniProt Q13421 296-580)
# T1 construct: made in HEK293E cells, purified on nickel column; also called hMSLN-FL-his; human MSLN full-length protein; not shown: His tag
# T1 sequence (Q13421 other isoform, or with tags, fused parts or gaps): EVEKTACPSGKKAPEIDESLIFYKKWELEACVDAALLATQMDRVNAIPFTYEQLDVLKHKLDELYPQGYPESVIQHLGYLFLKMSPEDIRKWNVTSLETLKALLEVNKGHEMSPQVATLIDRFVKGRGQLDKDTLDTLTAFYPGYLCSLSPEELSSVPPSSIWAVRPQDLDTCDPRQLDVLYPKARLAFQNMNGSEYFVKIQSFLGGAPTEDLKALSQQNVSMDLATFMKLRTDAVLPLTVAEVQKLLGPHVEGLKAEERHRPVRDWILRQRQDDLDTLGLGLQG
# protocol text: SPR (Biacore), antibody captured on Protein A chip;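 also: flow cell at 25 °C, antigen injected for 240 s at five concentrations from 200 nM downward, dissociation followed up to 600 s, double-referenced, fitted with Langmuir 1:1 model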
measured parameter: Kd (nM)
Give the quantity in nM, number only.

- binder: "S009-F8-28.23 (antibody, human IgG1, kappa, V domains shown, human-murine chimeric antibody, human IgG1/kappa constant regions) VH: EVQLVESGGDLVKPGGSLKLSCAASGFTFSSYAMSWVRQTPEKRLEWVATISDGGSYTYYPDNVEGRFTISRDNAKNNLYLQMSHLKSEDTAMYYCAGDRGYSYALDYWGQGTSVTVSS VL: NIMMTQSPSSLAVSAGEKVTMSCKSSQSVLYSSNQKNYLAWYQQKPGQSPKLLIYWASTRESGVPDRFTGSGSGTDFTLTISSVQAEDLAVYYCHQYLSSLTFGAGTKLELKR"
  quantitative result: 44

Look up Kd of S009-F8-33.12 (antibody, human IgG1, kappa, V domains shown, human-murine chimeric antibody, human IgG1/kappa constant regions) VH: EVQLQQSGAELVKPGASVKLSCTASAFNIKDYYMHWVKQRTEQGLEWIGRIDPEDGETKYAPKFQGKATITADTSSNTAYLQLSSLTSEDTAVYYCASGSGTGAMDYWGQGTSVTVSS VL: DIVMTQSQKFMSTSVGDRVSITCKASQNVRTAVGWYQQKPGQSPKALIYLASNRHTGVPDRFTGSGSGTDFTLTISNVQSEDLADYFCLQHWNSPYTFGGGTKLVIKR and report it.
5.77
